Reference source for all entries: the supplement of paper PMC10724198

# protein stability index per record follows
Tested on: Saccharomyces cerevisiae
protocol.details: protein stability index of tFT-peptide fusion (C-terminal peptide) (PSI (0-1 scale)); higher = more stable (slower turnover)
condition.info: genetic background: das1 deletion; temperature: 30 C
Would you mind answering with just the numeric figure?

Field: example entries. Status: answers known.
TLLAFLIYLCFL = 0.403
WQVPYQRLAILF = 0.555
SFSIPILLLAFP = 0.311
DTHSRARAVLIA = 0.585

Item "LVLSVWFFNCTS" was tested on Saccharomyces cerevisiae; the reported protein stability index is 0.422

Saccharomyces cerevisiae assay, sequence "SGRKNQRILGLY" , recorded protein stability index = 0.649

So the reported protein stability index for "FLCFFGGCFFLV" , on Saccharomyces cerevisiae, turned out to be 0.523

Given the sequence "SRSFWHAIVFLA" and test system Saccharomyces cerevisiae, the measured protein stability index is 0.542

Item: "KRLALVSCSICG" | System: Saccharomyces cerevisiae | protein stability index: 0.446

Entry "VFLRCRSLSMRV" ; assay system Saccharomyces cerevisiae; protein stability index recorded at 0.397

Given the sequence "PSPRRPPRSRFP" and test system Saccharomyces cerevisiae, the measured protein stability index is 0.653

Noted protein stability index for "YTVRRVWLVRSR" , tested on Saccharomyces cerevisiae: 0.344

The reported Saccharomyces cerevisiae protein stability index of "VYVVLGTVYVTY" is 0.194

* * *

System: Saccharomyces cerevisiae
protocol.details: protein stability index of tFT-peptide fusion (C-terminal peptide) (PSI (0-1 scale)); higher = more stable (slower turnover)
condition.info: genetic background: wild type; temperature: 37 C
protein stability index vs 0.5: at or above is satisfied, below is not satisfied.

Before answering, review these 5 worked examples.
GFIRVRHLRSLC = not satisfied
GVVCCGFFFLVV = satisfied
LVFRVSLVEVVL = not satisfied
VIWVLGALASWG = satisfied
GFSFFFIFWFFF = not satisfied

hey, is protein stability index for this one >= 0.5? "LFGFYFVRCLVW"
not satisfied

Assess whether reported protein stability index for "FLGVFFYFLLCV" sits at 0.5 or higher.
not satisfied

Given "RLICFFSMYLRF" , state whether its protein stability index is at least 0.5.
not satisfied

Can "VFGSVAALRLLM" be said to have protein stability index at or above 0.5?
not satisfied

Please indicate if the recorded protein stability index for "VVCPCIIYVPGV" meets or exceeds 0.5.
satisfied

State whether the measured protein stability index reaches 0.5, counting equality as reaching it, for "FHSALIAIAAYV"
not satisfied

Could you tell me if the measured protein stability index of "VRELGVGGWRRQ" reaches 0.5 or more?
not satisfied

* * *

System: Saccharomyces cerevisiae
protocol.details: protein stability index of tFT-peptide fusion in wild type (PSI (0-1 scale)); higher = more stable (slower turnover)
condition.info: genetic background: wild type
Mark 0 for protein stability index values under 0.2, and 1 for everything at or above.

HITLPMCPLLLR = 1
LVVYLSCVACID = 0

# check: protein stability index of "ARWRVGNWRGAS" is greater than or equal to 0.2
1

Please indicate if the recorded protein stability index for "CLSSLPILLFFR" meets or exceeds 0.2.
0

// inclusive: protein stability index at least 0.2? input: "CLVSLPRLLFFR"
0

For this sequence, is measured protein stability index 0.2 or higher? "RSLRVLQPLYFR"
1

Item "AVTRLDAIYFRI" with protein stability index of 0.2 or above?
1

Is protein stability index for "LKILCQKMNHQN" at or above 0.2?
1

Item "LVVYLSCEACIN" with protein stability index of 0.2 or above?
0

Check if protein stability index >= 0.2 (inclusive). Item: "RELRVLLPLYFR"
0

* * *

// reported protein stability index per item
System: Saccharomyces cerevisiae
protocol.details: protein stability index of tFT-peptide fusion (C-terminal peptide) (PSI (0-1 scale)); higher = more stable (slower turnover)
condition.info: genetic background: doa10 deletion; temperature: 30 C
Form: value (number only, do not type unit).

FFLDVMFLLFFF = 0.44

The sequence listed as "WDPKISVFVLID" shows protein stability index equal to 0.246

* * *

Tested on: Saccharomyces cerevisiae
protocol.details: protein stability index of tFT-peptide fusion (C-terminal peptide) (PSI (0-1 scale)); higher = more stable (slower turnover)
condition.info: genetic background: cdc53-1; temperature: 37 C
observable: protein stability index
Format: numeric value only, no unit, no commentary.

SLRYRFLSFFFL = 0.72
CRHCFVLLYFDY = 0.304
LVRFYGPLPPFP = 0.761
CPICDFLFLALF = 0.599
SGLVAFSVCCRG = 0.449
GNRDLVNTSVEG = 0.721
IVVWCGIRYSIR = 0.415
FIRLFLVSFFIS = 0.451
CVCVVVCWRCGF = 0.465
RNFSFTVICLAM = 0.62

Entry under test: "CLWNFWVRFLLL" . Its protein stability index was 0.406

// "VPSPWLIRSLMS" : protein stability index value = 0.687

* * *

Test system: Saccharomyces cerevisiae
protocol.details: protein stability index of tFT-peptide fusion (C-terminal peptide) (PSI (0-1 scale)); higher = more stable (slower turnover)
condition.info: genetic background: das1 deletion; temperature: 37 C
Respond with label 1 for protein stability index values of 0.6 and above, label 0 for values below.

LRMMLLVTIILE = label 0
VSTVCLDFSPFL = label 1

Please indicate if the recorded protein stability index for "SFRIWLFRFFFV" meets or exceeds 0.6.
label 1

Please indicate if the recorded protein stability index for "GGGGLRVVVWLV" meets or exceeds 0.6.
label 1

Hello, I need to know if "EVFLARKRSMVV" has measured protein stability index not below 0.6. Thanks!
label 1

Check if protein stability index >= 0.6 (inclusive). Item: "LPWLLLISFSYR"
label 0

Would you say "ACVRFPLVLVVF" shows protein stability index at minimum 0.6?
label 0

Answer whether protein stability index of "IVVWCGIRYSIR" is greater than or equal to 0.6.
label 0

Can "CSLRGLFLVVSV" be said to have protein stability index at or above 0.6?
label 0

Check the entry "CRLATILRITAL" : does protein stability index equal or exceed 0.6?
label 1

Tell me whether protein stability index is at least 0.6 here: "GHFILFWVFCFM"
label 0

In plain terms: is recorded protein stability index at least 0.6 for "AFPVGFLVGLVV" ?
label 0

Hello, I need to know if "GFIRVRHLRSLC" has measured protein stability index not below 0.6. Thanks!
label 1

Entry "FRFYCGLVIANV" : is its protein stability index no less than 0.6?
label 0

Please tell me: is the sequence "PPTHDSPVWSPS" at or over 0.6 in terms of protein stability index?
label 1

* * *

System: Saccharomyces cerevisiae
protocol.details: protein stability index of tFT-peptide fusion (C-terminal peptide) (PSI (0-1 scale)); higher = more stable (slower turnover)
condition.info: genetic background: wild type; temperature: 30 C
observable: protein stability index
// no unit string in output, number only

SRSGVSTRGVPC = 0.709

Result for "IRRNRGLKWNVN" , tested on Saccharomyces cerevisiae, protein stability index: 0.613

Tested system Saccharomyces cerevisiae; protein stability index recorded for "APPPALHPPPPH" was 0.688

Tested on Saccharomyces cerevisiae: "PLGDIRPSPRDS" . Observed protein stability index: 0.681

The sequence "PPRYLCLGPGPC" , tested on Saccharomyces cerevisiae, showed protein stability index of 0.691

Entry "LRWFLTGWPRGE" , Saccharomyces cerevisiae data, protein stability index value: 0.699

Fill in: Saccharomyces cerevisiae protein stability index for "SSPSPSPPHLHP" = 0.712

"LRKGGGVGVWRG" tested on Saccharomyces cerevisiae gave protein stability index: 0.687

* * *

Test system: Saccharomyces cerevisiae
protocol.details: protein stability index of tFT-peptide fusion (C-terminal peptide) (PSI (0-1 scale)); higher = more stable (slower turnover)
condition.info: genetic background: doa10 deletion; temperature: 30 C
observable: protein stability index

SFSIPILLLAFP = 0.451
SFYAGLVVGGVG = 0.525
RVIRHLRRISNF = 0.142
SRRRRLVSKFLA = 0.141
GYRRCCHFLFTL = 0.359
IIAGVWFLEILG = 0.308
LWFFVVVVVRWV = 0.139
VCLVLVVVWWSG = 0.189
FCSVFAHFLLCH = 0.193
GLDLLTKFSKEC = 0.291

Reported protein stability index ( "VFFLFLVFLTVV" ) = 0.222

Value of protein stability index reported for the sequence "CMPVYYTVVIRL" is 0.246

Lab note: measured protein stability index of "FSFSAFARFLVI" was 0.243

Sample "RQILYYRERFIP" ; protein stability index observed: 0.169

Notebook: "YVSSCLLWLCFV" , protein stability index read as 0.28

Sure, the documented protein stability index for "EFEIALTLIRSI" is 0.304
